Recorded PBM E-score, one value per entry.
experimental target: Nrg2 (UniProt P38082)
Sequence: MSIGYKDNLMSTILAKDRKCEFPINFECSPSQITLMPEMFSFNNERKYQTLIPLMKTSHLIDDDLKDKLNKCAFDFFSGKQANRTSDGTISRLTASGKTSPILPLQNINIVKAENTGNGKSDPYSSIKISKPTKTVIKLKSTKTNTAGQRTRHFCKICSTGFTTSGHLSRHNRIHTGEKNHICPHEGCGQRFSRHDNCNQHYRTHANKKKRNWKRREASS
assay notes: PBM E-score (8-mer binding enrichment) (E-score (-0.5 to 0.5)); higher = stronger / more preferred TF binding
condition details: protein concentration: 100 nM; construct: GST-full length
Over roughly 33,000 sequences, “E-score (-0.5 to 0.5)” has its median near -8e-05; the highest 2% begin near 0.23. Many of the other results were omitted from the sample, so the highest values are more common in it than they were.
property measured: PBM E-score

sequence_entry=AGTAGTTA experimental_target="Nrg2 (UniProt P38082)" property_measured="PBM E-score" measured=0.0579
sequence_entry=TGAATACA experimental_target="Nrg2 (UniProt P38082)" property_measured="PBM E-score" measured=0.0782
sequence_entry=AAATTGTC experimental_target="Nrg2 (UniProt P38082)" property_measured="PBM E-score" measured=0.24
sequence_entry=GTTAGTTA experimental_target="Nrg2 (UniProt P38082)" property_measured="PBM E-score" measured=0.0784
sequence_entry=ACATAGAA experimental_target="Nrg2 (UniProt P38082)" property_measured="PBM E-score" measured=0.157
sequence_entry=CTTAGTTA experimental_target="Nrg2 (UniProt P38082)" property_measured="PBM E-score" measured=0.0769
sequence_entry=AGTAGTTC experimental_target="Nrg2 (UniProt P38082)" property_measured="PBM E-score" measured=0.207
sequence_entry=ATTAGTGC experimental_target="Nrg2 (UniProt P38082)" property_measured="PBM E-score" measured=0.23
sequence_entry=ATTAGTAA experimental_target="Nrg2 (UniProt P38082)" property_measured="PBM E-score" measured=0.245
sequence_entry=CTTAGTAA experimental_target="Nrg2 (UniProt P38082)" property_measured="PBM E-score" measured=0.0233
sequence_entry=AATTGAGA experimental_target="Nrg2 (UniProt P38082)" property_measured="PBM E-score" measured=0.0993

###

experimental target: Nrg2 (UniProt P38082)
Sequence: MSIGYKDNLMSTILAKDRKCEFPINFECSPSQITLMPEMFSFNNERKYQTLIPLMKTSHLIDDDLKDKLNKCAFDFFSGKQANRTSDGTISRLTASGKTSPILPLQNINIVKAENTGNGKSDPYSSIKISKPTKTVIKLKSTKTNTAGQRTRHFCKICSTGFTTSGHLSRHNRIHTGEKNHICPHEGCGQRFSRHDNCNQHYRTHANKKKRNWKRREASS
assay notes: PBM E-score (8-mer binding enrichment) (E-score (-0.5 to 0.5)); higher = stronger / more preferred TF binding
condition details: protein concentration: 100 nM; construct: GST-full length
Over roughly 33,000 sequences, “E-score (-0.5 to 0.5)” has its median near -8e-05; the highest 2% begin near 0.23. The list comes from a sample in which the highest values are over-represented; it also holds close analogues and randomly drawn sequences.
Binning rule for recorded PBM E-score: L (below 0.03), M (0.03 to below 0.2), H (0.2 or more)

sequence_entry=AATAAGAA assigned_category=H
sequence_entry=TATAAGAA assigned_category=M
sequence_entry=TACCACAA assigned_category=M
sequence_entry=GATATATC assigned_category=L
sequence_entry=AAATCACT assigned_category=M
sequence_entry=AAATCGCA assigned_category=M
sequence_entry=GATATACA assigned_category=M
sequence_entry=TGCAACAA assigned_category=L
sequence_entry=ATATCGCG assigned_category=H
sequence_entry=TAAATATA assigned_category=M
sequence_entry=CATATAAA assigned_category=L
sequence_entry=CATAAGAA assigned_category=H
sequence_entry=ACGGTTCG assigned_category=L
sequence_entry=AGGAACGG assigned_category=M
sequence_entry=ACCGCAAC assigned_category=H
sequence_entry=TATATATA assigned_category=H
sequence_entry=CTTAGAAC assigned_category=M
sequence_entry=GCCGAGGC assigned_category=M
sequence_entry=ATATCGCA assigned_category=L
sequence_entry=GACAGGGA assigned_category=H
sequence_entry=GACAAGGA assigned_category=M
sequence_entry=GCTCCCAA assigned_category=L
sequence_entry=ATCTAGAA assigned_category=L
sequence_entry=ACCGCAAG assigned_category=L
sequence_entry=AACAGGGA assigned_category=M
sequence_entry=TCCGGTAA assigned_category=L
sequence_entry=GAACAGAA assigned_category=M
sequence_entry=CCCAGACG assigned_category=L
sequence_entry=AATAAGAT assigned_category=L
sequence_entry=GAAATATA assigned_category=H
sequence_entry=GATAAGAA assigned_category=M
sequence_entry=CGCGTTTA assigned_category=M
sequence_entry=CACAGGGA assigned_category=M
sequence_entry=AAGCGCTT assigned_category=H
sequence_entry=ATGTCCCA assigned_category=L
sequence_entry=CATATAAG assigned_category=M
sequence_entry=GAAGCCTC assigned_category=L
sequence_entry=GCCGCAAC assigned_category=M
sequence_entry=ACCGCATC assigned_category=M
sequence_entry=AAGCGCTC assigned_category=M
sequence_entry=AAATTATG assigned_category=M
sequence_entry=TTGAACAA assigned_category=L
sequence_entry=AATATATG assigned_category=H
sequence_entry=TATATACA assigned_category=H

These entries and their values trace back to the supplement of paper PMC3334620.
